Test system: crabgrass, large (large crabgrass, Digitaria sanguinalis)
method.description: Test C greenhouse herbicide test, pre- and postemergence
Type: in vivo
protocol.conditions: Postemergence, 31 g ai/ha; scale 0 to 100 (0 no effect, 100 complete control)
measurement.kind: Plant response rating, Crabgrass, Large
One number for each entry.

Please review the entries below; each comes with its answer.
Cc1sc2ccc(Cl)cc2c1-c1c(OS(C)(=O)=O)c(Cl)nn(C)c1=O 10
CC(=O)Oc1c(C)nn(C)c(=O)c1-c1c([N+](=O)[O-])ccc2ccccc12 0
CCCC(=O)Oc1c(C)nn(C)c(=O)c1-c1c(C)sc2c(C)cc(C)cc12 25
CSCC(=O)Oc1c(C)nn(C)c(=O)c1-c1cccc2ccccc12 5
CCC(=O)Oc1c(Cl)nn(C)c(=O)c1-c1c(C)sc2ccc(Cl)cc12 10

Given the entry CCC(=O)Oc1c(C)nn(C)c(=O)c1-c1ccc(Br)c2ccccc12 , report its measured Plant response rating, Crabgrass, Large.
0

====

Tested on: speedwell (bird's-eye speedwell, Veronica persica)
method.description: Test D controlled growth environment herbicide test, pre- and postemergence
Type: in vivo
protocol.conditions: Postemergence, 125 g ai/ha; visual rating on scale 0 (no effect) to 100 (complete control), 14 to 21 d
// assign met if Plant response rating, Speedwell falls strictly below 60, else not met (ties count as not met)

Please review the following examples before continuing.
COc1nn(C)c(=O)c(-c2c(C)ccc3ccccc23)c1OC(=O)OC(C)C not met
Cc1nn(C)c(=O)c(-c2c(C)sc3ccc(Cl)cc23)c1O met
CC(=O)Oc1c(C)nn(C)c(=O)c1-c1c(C)cc(C)c2ccccc12 not met

Strictly below 60 in Plant response rating, Speedwell? CC(=O)Oc1c(C)nn(C)c(=O)c1-c1c(C)sc2ccc(C)cc12
met

Below 60 on Plant response rating, Speedwell? Entry CCC(=O)Oc1c(C)nn(C)c(=O)c1-c1c(C)sc2ccc(Cl)cc12
not met

Please let me know if CC(=O)Oc1c(Br)nn(C)c(=O)c1-c1c(C)ccc2ccccc12 shows Plant response rating, Speedwell below 60.
not met

Hi there! Is Plant response rating, Speedwell for CCC(=O)Oc1c(C)nn(C)c(=O)c1-c1c(C)sc2ccc(C)cc12 below 60, do you know?
met

====

Test system: Russian thistle (Salsola kali)
method.description: Test D controlled growth environment herbicide test, pre- and postemergence
Type: in vivo
protocol.conditions: Postemergence, 250 g ai/ha; scale 0 to 100 (0 no effect, 100 complete control)
measurement.kind: Plant response rating, Russian Thistle
One number for each entry.

Here is how some molecules turned out for Plant response rating, Russian Thistle.
CC(=O)Oc1c(Br)nn(C)c(=O)c1-c1c(C)ccc2ccccc12 90
CCOC(=O)Oc1c(C)nn(C)c(=O)c1-c1c(C)sc2c(C)cc(C)cc12 85
Cc1cc(C)c2sc(C)c(-c3c(OC(=O)OCCCl)c(C)nn(C)c3=O)c2c1 90

// moving on: another record for Plant response rating, Russian Thistle
# lookup: Plant response rating, Russian Thistle of CC(=O)Oc1c(C)nn(C)c(=O)c1-c1c(C)sc2c(C)cc(C)cc12
70

====

System: soybean (Glycine max)
method.description: Test E greenhouse herbicide test, pre- and postemergence
Type: in vivo
protocol.conditions: Preemergence, 31 g ai/ha; scale 0 to 100, 0 no effect, 100 complete control
measurement.kind: Plant response rating, Soybean
Numbers only.

Solved cases (3 shown):
CC(=O)Oc1c(C)nn(C)c(=O)c1-c1c(C)sc2c(C)cc(C)cc12 0
CC(=O)Oc1c(C)nn(C)c(=O)c1-c1c(C)cc(C)c2ccccc12 30
Cc1ccc2sc(C)c(-c3c(O)c(C)nn(C)c3=O)c2c1 0

Quick request: Plant response rating, Soybean for each listed item, please.
1. COC(=O)Oc1c(C)nn(C)c(=O)c1-c1c(C)sc2c(C)cc(C)cc12
2. Cc1ccc2ccccc2c1-c1c(O)c(C)nn(C)c1=O
3. CC(=O)Oc1c(C)nn(C)c(=O)c1-c1c(C)sc2ccc(C)cc12
4. CCOC(=O)Oc1c(C)nn(C)c(=O)c1-c1c(C)sc2ccc(C)cc12

1. 0
2. 35
3. 0
4. 0

====

Tested on: oilseed rape (Brassica napus)
method.description: Test D controlled growth environment herbicide test, pre- and postemergence
Assay type: in vivo
protocol.conditions: Postemergence, 31 g ai/ha; scale 0 to 100 (0 no effect, 100 complete control)
Lab note: compare Oilseed Rape plant response rating against 60. Equal or greater, write met. Smaller, write not met.

CCC(=O)Oc1c(C)nn(C)c(=O)c1-c1c(C)sc2ccc(Cl)cc12 met
Cc1ccc2ccc(C)c(-c3c(O)c(C)nn(C)c3=O)c2c1 met

Say whether Cc1cc(C)c2sc(C)c(-c3c(OC(=O)OCCCl)c(C)nn(C)c3=O)c2c1 shows Oilseed Rape plant response rating of 60 or more.
met

Check this compound for Oilseed Rape plant response rating at or above 60: C#CCOC(=O)Oc1c(C)nn(C)c(=O)c1-c1c(C)sc2ccc(C)cc12
not met

Record CC(=O)Oc1c(C)nn(C)c(=O)c1-c1c(C)sc2c(C)cc(C)cc12 ; criterion: Oilseed Rape plant response rating no lower than 60. Met?
not met

Does the reported Oilseed Rape plant response rating for CCOC(=O)Oc1c(C)nn(C)c(=O)c1-c1c(C)ccc2ccccc12 fall at or above the 60 mark?
met

====

Would you kindly list Ryegrass, Italian plant response rating for each of these molecules?
System: ryegrass, Italian (Italian ryegrass, Lolium multiflorum)
method.description: Test C greenhouse herbicide test, pre- and postemergence
Type: in vivo
protocol.conditions: Preemergence, 250 g ai/ha; scale 0 to 100 (0 no effect, 100 complete control)
Answers are plain numbers.

COc1nn(C)c(=O)c(-c2c(C)ccc3ccccc23)c1OC(C)=O 95
CC(=O)Oc1c(C)nn(C)c(=O)c1-c1c(C)sc2c(C)cc(C)cc12 95
CCC(=O)Oc1c(C)nn(C)c(=O)c1-c1c(C)sc2ccc(Cl)cc12 95
Cc1cc(C)c2sc(C)c(-c3c(OC(=O)OC(C)C)c(C)nn(C)c3=O)c2c1 90

// below: Ryegrass, Italian plant response rating requested for another molecule
So what does the record say about Ryegrass, Italian plant response rating for CC(=O)Oc1c(C)nn(C)c(=O)c1-c1c(C)sc2ccc(C)cc12 ?
95

====

System: corn (Zea mays)
method.description: Test C greenhouse herbicide test, pre- and postemergence
Format: in vivo
protocol.conditions: Preemergence, 125 g ai/ha; scale 0 to 100, 0 is no effect, 100 is complete control
measurement.kind: Plant response rating, Corn
Give bare numbers.

compound	assay.value
Cc1cc(C)c2sc(C)c(-c3c(OC(=O)OC(C)C)c(C)nn(C)c3=O)c2c1 [Compound 67]	0
CCOC(=O)Oc1c(C)nn(C)c(=O)c1-c1c(CC)ccc2ccccc12 [Compound 37]	0

Consider the following items and state reported Plant response rating, Corn for each.
1. CC(=O)Oc1c(C)nn(C)c(=O)c1-c1ccc(F)c2ccccc12 [Compound 90]
2. CCOC(=O)Oc1c(C)nn(C)c(=O)c1-c1c(C)sc2c(C)cc(C)cc12 [Compound 83]
3. COC(=O)Oc1c(C)nn(C)c(=O)c1-c1c(C)sc2c(C)cc(C)cc12 [Compound 81]

1: 5; 2: 0; 3: 20

====

Would you mind telling me the reported Plant response rating, Velvetleaf of each entry?
Tested on: velvetleaf (Abutilon theophrasti)
method.description: Test E greenhouse herbicide test, pre- and postemergence
Format: in vivo
protocol.conditions: Preemergence, 31 g ai/ha; scale 0 to 100, 0 no effect, 100 complete control
Numbers only.

Example cases with answers are listed next.
compound	assay.value
CCC(=O)Oc1c(C)nn(C)c(=O)c1-c1c(C)sc2c(C)cc(C)cc12 [Compound 28]	0
CC(=O)Oc1c(C)nn(C)c(=O)c1-c1c(C)sc2c(C)cc(C)cc12 [Compound 27]	50
CC(=O)Oc1c(C)nn(C)c(=O)c1-c1c(C)sc2ccc(C)cc12 [Compound 25]	60

What reported Plant response rating, Velvetleaf corresponds to CCC(=O)Oc1c(C)nn(C)c(=O)c1-c1c(C)sc2ccc(Cl)cc12 [Compound 109] on velvetleaf (Abutilon theophrasti)?
0

====

What Plant response rating, Barnyardgrass was measured for each of the following?
Test system: barnyardgrass (Echinochloa crus-galli)
method.description: Test A greenhouse herbicide test, pre- and postemergence
Format: in vivo
protocol.conditions: Preemergence, 125 g ai/ha; visual injury rating, 0 to 100 scale (0 no effect, 100 complete control), approx. 10 d
One number for each entry.

Here's what some known entries look like.
molecule	assay.value
Cc1nn(C)c(=O)c(-c2ccc(Cl)c3ccccc23)c1OS(=O)(=O)N(C)C [Compound 185]	0
Cc1ccc2ccccc2c1-c1c(OS(C)(=O)=O)c(Br)nn(C)c1=O [Compound 155]	50
CC(=O)Oc1c(C)nn(C)c(=O)c1-c1ccc(Cl)c2ccccc12 [Compound 157]	70

I have 2 molecules here; please give me Plant response rating, Barnyardgrass for each one.
1. Cc1ccc2ccccc2c1-c1c(OC(=O)N2CCOCC2)c(Br)nn(C)c1=O [Compound 176]
2. CC(=O)Oc1c(C)nn(C)c(=O)c1-c1c([N+](=O)[O-])ccc2ccccc12 [Compound 164]

0
10
